test system: Staphylococcus aureus; assay: Antibacterial activity against wild type Staphylococcus aureus assessed as inhibition of bacterial growth; assay type: functional

# compound, MIC (µg/mL)
measured = [
    ("COc1c(N2CCCC(N(C)CCCNc3cc(O)c4nc5c6c7c8c(C)c(O)c6c(=O)c(c-5oc4c3)NC(=O)/C(C)=C\\C=C\\[C@H](C(C)OC(=O)C(C)(C)CC(=O)O)[C@H](O)[C@@H](C)[C@@H](O)[C@@H](C)[C@H](OC(C)=O)[C@H](C)[C@@H](O[C@H]3C[C@@H]4OCO[C@@H]4[C@@H](C)O3)/C=C/O[C@@](C)(O8)C7=O)C2)c(F)cc2c(=O)c(C(=O)O)cn(C3CC3)c12 (stereo not given in full)", 8),
    ("COc1c(N2CCNC(C)C2)c(F)cc2c(=O)c(C(=O)O)cn(C3CC3)c12 (stereo not given)", 0.063),
    ("COc1c(N2C[C@@H]3CCCN(C(=O)CC(C)(C)C(=O)OC(C)[C@H]4/C=C/C=C(/C)C(=O)NC5=CC(=O)c6c(c(O)c(C)c7c6C(=O)[C@@](C)(O/C=C/[C@H](O[C@H]6C[C@@H]8OCO[C@@H]8[C@@H](C)O6)[C@@H](C)[C@@H](OC(C)=O)[C@H](C)[C@H](O)[C@H](C)[C@H]4O)O7)C5=O)[C@@H]3C2)c(F)cc2c(=O)c(C(=O)O)cn(C3CC3)c12 (stereo not given in full)", 32),
    ("CC(=O)O[C@H]1[C@H](C)[C@H](O)[C@H](C)[C@@H](O)[C@@H](C(C)OC(=O)C(C)(C)CC(=O)N2CCN(c3cc4c(cc3F)c(=O)c(C(=O)O)cn4C3CC3)CC2)/C=C/C=C(/C)C(=O)NC2=CC(=O)c3c(c(O)c(C)c4c3C(=O)[C@@](C)(O/C=C/[C@H](O[C@H]3C[C@@H]5OCO[C@@H]5[C@@H](C)O3)[C@H]1C)O4)C2=O (stereo not given in full)", 16),
    ("C[C@H]1NCc2cc(-c3ccc4c(=O)c(C(=O)O)cn(C5CC5)c4c3OC(F)F)ccc21", 0.016),
]

###

tested on: HEK293; assay: Cytotoxicity against HEK293 cells; assay type: toxicity, cell-based, Homo sapiens
Catalogue of IC50 readings, one per entry.

# compound, IC50
data = [
    ("COc1c(N2C[C@@H]3CCCN(c4cc(O)c5nc6c7c8c9c(C)c(O)c7c(=O)c(c-6oc5c4)NC(=O)/C(C)=C\\C=C\\[C@H](C(C)OC(=O)C(C)(C)CC(=O)O)[C@H](O)[C@@H](C)[C@@H](O)[C@@H](C)[C@H](OC(C)=O)[C@H](C)[C@@H](O[C@H]4C[C@@H]5OCO[C@@H]5[C@@H](C)O4)/C=C/O[C@@](C)(O9)C8=O)[C@@H]3C2)c(F)cc2c(=O)c(C(=O)O)cn(C3CC3)c12 (stereo partly specified)", "> 64 µg/mL"),
    ("COc1c(N2CCCC(N(C)CCCNc3cc(O)c4nc5c6c7c8c(C)c(O)c6c(=O)c(c-5oc4c3)NC(=O)/C(C)=C\\C=C\\[C@H](C(C)OC(=O)C(C)(C)CC(=O)O)[C@H](O)[C@@H](C)[C@@H](O)[C@@H](C)[C@H](OC(C)=O)[C@H](C)[C@@H](O[C@H]3C[C@@H]4OCO[C@@H]4[C@@H](C)O3)/C=C/O[C@@](C)(O8)C7=O)C2)c(F)cc2c(=O)c(C(=O)O)cn(C3CC3)c12 (stereo partly specified)", "> 64 µg/mL"),
    ("CC(=O)O[C@H]1[C@H](C)[C@H](O)[C@H](C)[C@@H](O)[C@@H](C(C)OC(=O)C(C)(C)CC(=O)O)/C=C/C=C(/C)C(=O)Nc2c3oc4cc(N5CCCn6nc(C(=O)N7Cc8cc(-c9ccc%10c(=O)c(C(=O)O)cn(C%11CC%11)c%10c9OC(F)F)ccc8[C@H]7C)cc6C5)cc(O)c4nc-3c3c4c(c(C)c(O)c3c2=O)O[C@](C)(O/C=C/[C@H](O[C@H]2C[C@@H]3OCO[C@@H]3[C@@H](C)O2)[C@H]1C)C4=O (stereo partly specified)", "> 64 µg/mL"),
    ("CC(=O)O[C@H]1[C@H](C)[C@H](O)[C@H](C)[C@@H](O)[C@@H](C(C)OC(=O)C(C)(C)CC(=O)N[C@H]2[C@@H]3CN(c4nc5c(cc4F)c(=O)c(C(=O)O)cn5-c4ccc(F)cc4F)C[C@@H]32)/C=C/C=C(/C)C(=O)NC2=CC(=O)c3c(c(O)c(C)c4c3C(=O)[C@@](C)(O/C=C/[C@H](O[C@H]3C[C@@H]5OCO[C@@H]5[C@@H](C)O3)[C@H]1C)O4)C2=O (stereo partly specified)", "> 64 µg/mL"),
    ("CC(=O)O[C@H]1[C@H](C)[C@H](O)[C@H](C)[C@@H](O)[C@@H](C(C)OC(=O)C(C)(C)CC(=O)NC2(c3c(F)cc4c(=O)c(C(=O)O)cn5c4c3OC[C@@H]5C)CC2)/C=C/C=C(/C)C(=O)NC2=CC(=O)c3c(c(O)c(C)c4c3C(=O)[C@@](C)(O/C=C/[C@H](O[C@H]3C[C@@H]5OCO[C@@H]5[C@@H](C)O3)[C@H]1C)O4)C2=O (stereo partly specified)", "> 64 µg/mL"),
    ("CC(=O)O[C@H]1[C@H](C)[C@H](O)[C@H](C)[C@@H](O)[C@@H](C(C)OC(=O)C(C)(C)CC(=O)O)/C=C/C=C(/C)C(=O)Nc2c3oc4cc(NCCCCCC(=O)N5Cc6cc(-c7ccc8c(=O)c(C(=O)O)cn(C9CC9)c8c7OC(F)F)ccc6[C@H]5C)cc(O)c4nc-3c3c4c(c(C)c(O)c3c2=O)O[C@](C)(O/C=C/[C@H](O[C@H]2C[C@@H]3OCO[C@@H]3[C@@H](C)O2)[C@H]1C)C4=O (stereo partly specified)", "> 64 µg/mL"),
]
